target: Ba/F3-V654A (KIT exon11 deletion (557-558) and secondary mutation V654A) (Homo sapiens, UniProt P10721, DEL557-558/V654A)
Construct: expressed in transfected cells; host or cells: Ba/F3 cells, lentiviral transduction (pLVX-IRES Puro)
Sequence (P10721 with tags, fused parts or gaps DEL557-558/V654A): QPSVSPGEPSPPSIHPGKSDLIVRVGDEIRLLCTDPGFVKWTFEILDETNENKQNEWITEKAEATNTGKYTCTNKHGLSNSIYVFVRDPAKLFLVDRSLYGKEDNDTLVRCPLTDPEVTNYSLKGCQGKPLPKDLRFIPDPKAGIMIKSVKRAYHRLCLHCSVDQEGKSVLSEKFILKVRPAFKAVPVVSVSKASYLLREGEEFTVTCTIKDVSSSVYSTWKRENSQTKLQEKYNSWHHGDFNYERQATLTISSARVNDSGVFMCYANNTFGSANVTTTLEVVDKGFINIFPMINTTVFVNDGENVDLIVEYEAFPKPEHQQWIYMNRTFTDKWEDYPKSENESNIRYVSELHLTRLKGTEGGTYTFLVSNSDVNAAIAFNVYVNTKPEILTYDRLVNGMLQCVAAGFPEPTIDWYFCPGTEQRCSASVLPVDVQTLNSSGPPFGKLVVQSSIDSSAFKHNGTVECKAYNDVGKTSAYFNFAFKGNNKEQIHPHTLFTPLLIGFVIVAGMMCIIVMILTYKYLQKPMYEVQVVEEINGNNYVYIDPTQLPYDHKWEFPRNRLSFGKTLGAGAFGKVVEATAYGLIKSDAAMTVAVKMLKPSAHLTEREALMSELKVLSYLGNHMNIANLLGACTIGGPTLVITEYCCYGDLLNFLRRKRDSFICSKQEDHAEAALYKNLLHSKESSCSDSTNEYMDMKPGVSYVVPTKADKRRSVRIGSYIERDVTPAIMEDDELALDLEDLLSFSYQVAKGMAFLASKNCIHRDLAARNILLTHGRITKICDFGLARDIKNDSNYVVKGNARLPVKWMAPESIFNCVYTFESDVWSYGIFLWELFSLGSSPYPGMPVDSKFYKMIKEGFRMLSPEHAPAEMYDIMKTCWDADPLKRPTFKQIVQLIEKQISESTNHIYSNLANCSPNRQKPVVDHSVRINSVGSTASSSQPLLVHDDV
assay name: MTS viability assay, Ba/F3 expressing KIT exon11 deletion (557-558) and V654A
Assay type: cell-based
measurement conditions: 72 h incubation, top concentration 10 uM
value type: Ba/F3-V654A GI50 (nM)
A number alone suffices; assume nM.

CCOc1cc(OC2COC2)cc2ncnc(Nc3ccc(NC(=O)Cn4cc(C(C)C)nn4)cc3)c12 [Example 9] | 12
COc1cc(OC2CCOCC2)cc2ncnc(Nc3ccc(NC(=O)Cn4cc(C(C)C)nn4)cc3)c12 [Example 10] | 7
CCOc1cc(OC)cc2ncnc(Nc3ccc(NC(=O)Cn4cc(C(C)C)nn4)cc3)c12 [Example 7] | 7
COc1cc2ncnc(Nc3ccc(NC(=O)Cn4cc(C(C)C)nn4)cc3)c2c(OC)c1OC [Example 11] | 4
CCOc1cc(OCCN(C)C)cc2ncnc(Nc3ccc(NC(=O)Cn4cc(C(C)C)nn4)cc3)c12 [Example 6] | 13

Specify Ba/F3-V654A GI50 for COc1cc(OCCN(C)C)cc2ncnc(Nc3ccc(NC(=O)Cn4cc(C(C)C)nn4)cc3)c12 [Example 17] and stop.
20

Answer with the recorded Ba/F3-V654A GI50 for the compound listed here: COc1cc(OC)c2c(Nc3ccc(NC(=O)Cn4cc(C(C)C)nn4)cc3F)ncnc2c1 [Example 1]
7

Give recorded Ba/F3-V654A GI50. COCCOc1cc(OC)c2c(Nc3ccc(NC(=O)Cn4cc(C(C)C)nn4)cc3)ncnc2c1 [Example 20]
8
